Read-out: Cytochrome P450 (CYP2B6), CYP2B6 (gene 1555)
test summary: LTEA_HepaRG_CYP2B6: Life Technologies and Expression Analysis (LTEA) Assay for Cytochrome P450 (CYP2B6) using HepaRG (AID 2283481)
condition context: mRNA level, 48 h; actives raise or lower the signal
Active and inactive are the calls of the source. The calls were made as follows: active = hit-call score of the fitted dose curve at least 0.9, where 1 is the maximum; inactive = score below 0.9.
Pick one: 1 (yes) = active, 0 (no) = inactive

Example results:
CC(C)(C)C(O)(CCc1ccc(Cl)cc1)Cn1cncn1 (configuration not stated) :: 1 (yes)
c1ccc(NNc2ccccc2)cc1 :: 1 (yes)
O=C(Oc1ccc(Br)cc1)N1CCN2CCC1CC2 :: 1 (yes)
c1ccc(C2CO2)cc1 (configuration not stated) :: 0 (no)
N#CC(Br)Br :: 0 (no)

Q: // return assay outcome for "CC(C)N(Cc1ccccc1)C(=O)C(C)(C)C"
A: 1 (yes)

Q: "Clc1ccc(C(c2ccc(Cl)cc2)C(Cl)(Cl)Cl)cc1" , same question.
A: 1 (yes)

----------
test summary: ATG_TCF_b_cat_CIS: Attagene CIS-FACTORIAL HepG2 Assay for human T-Cell-Factor with beta-catenin (TCF/b-cat) (AID 2282965)
condition context: HepG2 TCF/beta-catenin cis-reporter transcription, actives raise or lower the signal
Active and inactive are the calls of the source. Rule for the calls: active = hit-call score of the fitted dose curve at least 0.9, where 1 is the maximum; inactive = score below 0.9.
Your response should consist of one outcome taken from TRUE (active), FALSE (inactive)

Solved entries:
Cc1ccc(N)cc1 :: FALSE
CNC(=O)Oc1cccc2c1OC(C)(C)C2 :: FALSE
CCCSC(=O)N(CCC)CCC :: FALSE

Q: Name the outcome recorded for "CCN(CC)N=O" in the assay.
A: FALSE

Q: What about this compound? "Nc1ccc(Cc2ccc(N)cc2)cc1"
A: FALSE

Q: Please give the result for "CCCCCCCCOC(=O)c1ccc(C(=O)OCCCCCCCC)c(C(=O)OCCCCCCCC)c1" too.
A: FALSE

Q: Now consider "CCCCCOC(=O)c1ccccc1C(=O)OCCCCC" .
A: FALSE

Q: And "Oc1ccc2ccc3cccc4ccc1c2c34" ?
A: FALSE

Q: Query "Nc1ccc(N=Nc2ccccc2)cc1" next
A: TRUE

Q: How about "CCOC(=O)[C@]1(c2ccccc2)Oc2ccccc2[C@@H]1N" ?
A: FALSE

Q: Do the same for "CCC12COCN1COC2" please
A: FALSE

Q: Quick one: "O=C1CCCO1"
A: FALSE

Q: Try C[N+](C)(C)CC1CO1 (stereo not given) next.
A: FALSE

Q: Next record, please: "CC(C)(C)OOC(C)(C)CCC(C)(C)OOC(C)(C)C"
A: FALSE

Q: Also check c1ccc(C2CO2)cc1 (stereo not given)
A: FALSE

----------
Read-out: E-selectin (Homo sapiens)
test summary: BSK_SAg_Eselectin: BioMAP Diversity Plus: SAg Assay for Eselectin Biomarker Activity (AID 2283091)
condition context: primary human HUVEC with PBMC; actives raise or lower the signal
Experimental: BSK_SAg is a cell-based, multiplexed-readout assay that uses umbilical vein endothelium and peripheral blood mononuclear cells, a human vascular primary cell co-culture, with measurements taken at 24 hours after chemical dosing in a 96-well plate.BSK_SAg_Eselectin is an assay component measured in the BSK_SAg assay. It measures E-selectin antibody related to regulation of gene expression using ELISA technology.Data from the assay component BSK_SAg_Eselectin was analyzed into 1 assay endpoint. […]
The source made the active and inactive calls. Rule for the calls: active = hit-call score of the fitted dose curve at least 0.9, where 1 is the maximum; inactive = score below 0.9.
# output must be one of true = active, false = inactive

Check out these entries, answers already filled in.
CCN(CC)CCO :: false
O=C(Oc1ccc(Br)cc1)N1CCN2CCC1CC2 :: false

Q: Each compound tested received a call. Report the one for "c1ccc(NNc2ccccc2)cc1" .
A: false

Q: Would you kindly repeat that for "CCC[CH2][Sn]([Cl])([CH2]CCC)[CH2]CCC" ?
A: true

Q: Another compound: "Clc1ccccc1Cl"
A: false

Q: Ok, now "Cc1ccc(N)cc1"
A: false

Q: Now consider c1ccc(C2CO2)cc1 (stereo not given) and answer again.
A: false

Q: Next compound: "Cc1ccc(N)c(N)c1"
A: true

Q: What would you report for "Nc1ccc(N=Nc2ccccc2)cc1" ?
A: false

Q: Note, next up: "CCCCOC(=O)c1ccccc1C(=O)OCc1ccccc1"
A: false

Q: Quick one: "N#CC(Br)Br"
A: false

Q: Then "O=C1CCCO1" ?
A: false

Q: Follow-up entry: CCCCCCCCCCCCCN1CC(C)OC(C)C1 (stereo not given)
A: false

Q: Proceed to "Cc1ccc(N=C=O)cc1N=C=O"
A: false

Q: Please answer likewise for "O=Cc1ccco1"
A: false

Q: For "Nc1ccc(Cl)cc1N" then?
A: true

Q: Entry to check: "CCC12COCN1COC2"
A: false

Q: Also need "Brc1ccc(Oc2ccccc2)cc1" , thanks.
A: false

Q: One more compound: "C1=Cc2cccc3cccc1c23"
A: false

Q: And "O=[N+]([O-])c1ccc(Oc2ccc(Cl)cc2Cl)cc1" ?
A: true

Q: Same question, "ClCCOCCCl" this time
A: false
